System: HOP-92 NSCLC
Assay: NCI-60 one-dose screen, 48 h
Settings: 10 µM
Experimental: Growth inhibition of the HOP-92 human Non-Small Cell Lung tumor cell line is measured as a screen for anti-cancer activity. Cells are grown in 96 well plates and exposed to the test compound for 48 hours. Compounds are tested at a single concentration, which is 10^-5 M for most compounds. The reported endpoint is percent growth (GI% or GIPRCNT), where numbers from 0 - 100% represent growth inhibition, and numbers from -100% - 0 represent cell death. […]
This is part of a sample that, as a whole, favours compounds with a hit. Of some 83,000 tested, about 20% had one in any assay. Active and inactive are the calls of the source. How the source made its calls: active means growth percent below 10; inactive means the rest.
Give your call using only these classes: active, inactive

A selection of reference data follows.
Please state the recorded outcome for this compound: `CCCCCCNC(=O)Oc1ccc(/C(=C(/C)Cc2ccc(OC)cc2)c2ccc(OCCN3CCCCC3)cc2)cc1` inactive

Please state the recorded outcome for this compound: `Nc1cc(N)c2nc(-c3ccccc3)c(NCCc3ccc(Cl)c(Cl)c3)nc2c1` active

Please state the recorded outcome for this compound: `COc1cc(-c2nc3c(c(C)nc4c3nnn4-c3ccccc3)c(=O)o2)cc(OC)c1OC` inactive

Continuing:
Please state the recorded outcome for this compound: CCCCCCCCCCCCCCCCC(=O)O.CCCCCCCCCCCCCCCCCC(=O)O.CCCCCCCCCCCCCCCCCC(=O)O.CCCCCCCCCCCCCCCCCC(=O)O.CCCCCCCCCCCCCCCCCC(=O)O.CO[CH-]OC12COC1CC(O)C1(C)C(O)C(OC(C)O)C3=C(C)C(OC(=O)C(O)C([NH-])c4ccccc4)CC(O)(C(OC(=O)c4ccccc4)C21)C3(C)C.[Cu+].[Zn].[Zn].[Zn].[Zn].[Zn] (configuration not stated) inactive

Please state the recorded outcome for this compound: `CC(=O)Nc1nc(C)c(C(=O)N/N=C/N2CCOCC2)s1` inactive

Please state the recorded outcome for this compound: `Cc1c(Cc2ccccc2)c(=O)oc2c(C)c(OCc3n[nH]c(=S)o3)ccc12` inactive

Please state the recorded outcome for this compound: `COc1ccc(C2=C/C(=C\c3ccc(Cl)cc3)C(=O)NN2C(=S)NN)cc1` inactive
